Values from patent US20170152269A1

molecular target: CDK9/cyclin T1 (Homo sapiens); test: LanthaScreen Eu kinase binding assay, CDK9; settings: tracer 236 displacement, CDK9/cyclin T1 5 nM, 1 hour; read-out: CDK 9 inhibitory activity (IC50)
Sequence (P50750 whole entry): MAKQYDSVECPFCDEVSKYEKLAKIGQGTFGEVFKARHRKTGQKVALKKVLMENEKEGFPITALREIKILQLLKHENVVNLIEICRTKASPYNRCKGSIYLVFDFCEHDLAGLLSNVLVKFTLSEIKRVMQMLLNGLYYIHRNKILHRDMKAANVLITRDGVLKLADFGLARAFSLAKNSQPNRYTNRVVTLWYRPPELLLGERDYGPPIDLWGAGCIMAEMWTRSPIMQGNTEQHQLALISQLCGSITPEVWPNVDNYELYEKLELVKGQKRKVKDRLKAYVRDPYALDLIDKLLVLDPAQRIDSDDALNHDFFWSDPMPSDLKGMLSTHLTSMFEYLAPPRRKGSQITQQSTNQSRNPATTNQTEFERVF
Sequence (O60563 whole entry partner): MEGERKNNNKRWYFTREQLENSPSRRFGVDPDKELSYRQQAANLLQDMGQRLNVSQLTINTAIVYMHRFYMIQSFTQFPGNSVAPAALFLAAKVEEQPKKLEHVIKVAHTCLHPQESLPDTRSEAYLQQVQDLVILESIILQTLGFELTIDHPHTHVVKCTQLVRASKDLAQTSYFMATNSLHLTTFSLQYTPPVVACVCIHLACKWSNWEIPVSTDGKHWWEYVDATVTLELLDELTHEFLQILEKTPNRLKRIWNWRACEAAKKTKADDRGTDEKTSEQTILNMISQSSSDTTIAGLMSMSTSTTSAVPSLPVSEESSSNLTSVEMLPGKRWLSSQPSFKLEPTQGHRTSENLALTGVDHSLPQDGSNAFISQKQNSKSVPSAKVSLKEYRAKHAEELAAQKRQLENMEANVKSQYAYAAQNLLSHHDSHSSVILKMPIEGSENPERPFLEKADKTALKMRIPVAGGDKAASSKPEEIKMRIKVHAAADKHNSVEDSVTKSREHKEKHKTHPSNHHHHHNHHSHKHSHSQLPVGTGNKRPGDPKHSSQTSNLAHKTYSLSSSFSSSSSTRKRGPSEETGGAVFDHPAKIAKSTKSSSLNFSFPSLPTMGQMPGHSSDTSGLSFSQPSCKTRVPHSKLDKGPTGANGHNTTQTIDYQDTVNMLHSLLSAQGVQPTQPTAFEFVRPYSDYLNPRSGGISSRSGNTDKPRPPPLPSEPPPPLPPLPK
measuredEndpoint: IC50 (µM)

* CN1CCN(c2ccc(Nc3cc4c(C5CCCC5)c(C#N)sc4cn3)nc2)CC1 | 0.001

I = CN(C)C(=O)c1sc2cnc(Nc3cccc(N4CCNCC4)c3)cc2c1C1CCCC1
II = CC(=O)N1CCN(c2ccc(Nc3cc4c(C5CCCC5)c(C#N)sc4cn3)nc2)CC1
III = CN1CCN(c2cccc(Nc3cc4c(C5CCCC5)c(C#N)sc4cn3)c2)CC1
IV = CN(C)C(=O)c1sc2cnc(Nc3ccc(N4CCNCC4)cn3)cc2c1C1CC1
V = COC1(c2c(C(=O)N(C)C)sc3cnc(Nc4ccc(N5CCNCC5)cn4)cc23)CCCC1
Query: Sort the 5 compounds by IC50; largest first, smallest last. Lab note: record answer as labels in requested order.
Response: III, I, IV, V, II

----------
biological target: CDK9/cyclin T1 (Homo sapiens); assay: LanthaScreen Eu kinase binding assay, CDK9; conditions: tracer 236 displacement, CDK9/cyclin T1 5 nM, 1 hour; read-out: CDK 9 inhibitory activity (IC50)
measuredEndpoint: IC50 (nM)
Write the answer as a number in nM, unit excluded.

Query: For the compound N#Cc1sc2cnc(Nc3ccc(N4CCNCC4)nc3)cc2c1C1CCCC1 [Compound B2] , what IC50 is on record?
Response: 6.6

Query: Note, next up: N#Cc1sc2cnc(Nc3ccc(N4CCOCC4)nc3)cc2c1C1CCCC1 [Compound B7]
Response: 95.6

Query: Note, next up: N#Cc1sc2cnc(Nc3ccc(N4CCOCC4)cc3)cc2c1C1CCCC1 [Compound B6]
Response: 951
